# Measured On: Cytochrome P450 2C19 (Homo sapiens, UniProt P33261)
# Sequence (P33261 whole entry): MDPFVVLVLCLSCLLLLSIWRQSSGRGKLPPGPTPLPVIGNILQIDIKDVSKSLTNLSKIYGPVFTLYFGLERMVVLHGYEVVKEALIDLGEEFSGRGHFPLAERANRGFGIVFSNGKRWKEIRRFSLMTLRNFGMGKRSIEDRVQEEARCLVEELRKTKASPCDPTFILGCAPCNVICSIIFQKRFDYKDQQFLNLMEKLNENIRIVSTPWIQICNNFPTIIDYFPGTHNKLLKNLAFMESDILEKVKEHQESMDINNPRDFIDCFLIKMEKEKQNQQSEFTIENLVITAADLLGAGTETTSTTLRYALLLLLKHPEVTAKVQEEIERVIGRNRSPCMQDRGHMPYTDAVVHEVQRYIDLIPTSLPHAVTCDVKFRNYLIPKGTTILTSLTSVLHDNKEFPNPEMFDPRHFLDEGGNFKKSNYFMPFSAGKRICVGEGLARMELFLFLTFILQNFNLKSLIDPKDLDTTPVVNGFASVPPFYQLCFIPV
# Protocol: Inhibition of CYP2C19
# Assay type: ADME
Outcome Measure: INH

{"Molecule": "CCCS(=O)(=O)c1ccc2[nH]c(N3CCNC(c4ccccc4)C3)nc2c1 (centres undefined)", "Result": "> 20 µM"}
{"Molecule": "O=S(=O)(CC(F)(F)F)c1ccc2[nH]c(N3CCOC(c4ccccc4)C3)nc2c1 (centres undefined)", "Result": "> 20 µM"}
{"Molecule": "CC(C)(C)S(=O)(=O)c1ccc2[nH]c(N3CCOC(c4ccccc4)C3)nc2c1 (centres undefined)", "Result": "> 20 µM"}
{"Molecule": "CCCS(=O)(=O)c1ccc2nc(C3CCC(=O)N(c4ccccc4)C3)[nH]c2c1 (centres undefined)", "Result": "> 20 µM"}
{"Molecule": "CCCS(=O)(=O)c1ccc2[nH]c(C3CN(c4ccccc4)CCO3)nc2c1 (centres undefined)", "Result": "> 20 µM"}
{"Molecule": "CCCS(=O)(=O)c1ccc2[nH]c(N3CCC(c4ccccc4)C3)nc2c1 (centres undefined)", "Result": "> 20 µM"}
{"Molecule": "CC(C)S(=O)(=O)c1ccc2nc(N3CCOC(c4ccccc4)C3)[nH]c2c1 (centres undefined)", "Result": "19 µM"}
{"Molecule": "O=S(=O)(c1ccc2nc(N3CCOC(c4ccccc4)C3)[nH]c2c1)C(F)(F)F (centres undefined)", "Result": "1.7 µM"}
{"Molecule": "CC(C)(C(F)(F)F)S(=O)(=O)c1ccc2nc(N3CCOC(c4ccccc4)C3)[nH]c2c1 (centres undefined)", "Result": "17 µM"}

====

This section presents compounds with their documented solubility kinetic values.
# Protocol: Kinetic solubility of the compound in 1%DMSO at pH 6.8
# Type: physicochemical
# Applied Conditions: read-out: Kinetic_solubility
Outcome Measure: solubility kinetic (µM)

{"Compound": "CCS(=O)(=O)c1ccc2[nH]c(N3CCOC(c4ccc(OC)cc4)C3)nc2c1 (stereo not given)", "Result Operator": ">", "Readout Number": 50}
{"Compound": "CCS(=O)(=O)c1ccc2[nH]c(N3CCOC(c4ccc(C)cc4)C3)nc2c1 (stereo not given)", "Result Operator": "=", "Readout Number": 21.6}
{"Compound": "CCCS(=O)(=O)c1ccc2nc(C3CCC(=O)N(c4ccccc4)C3)[nH]c2c1 (stereo not given)", "Result Operator": ">", "Readout Number": 50}
{"Compound": "CCS(=O)(=O)c1ccc2nc(N3CCOC(c4ccccc4)C3)[nH]c2c1 (stereo not given)", "Result Operator": ">", "Readout Number": 50}
{"Compound": "CCCS(=O)(=O)c1ccc2nc(N3CCCC(c4ccccc4)C3)[nH]c2c1 (stereo not given)", "Result Operator": "=", "Readout Number": 19.1}

====

# Measured On: Cytochrome P450 3A4 (Homo sapiens, UniProt P08684)
# Sequence (P08684 whole entry): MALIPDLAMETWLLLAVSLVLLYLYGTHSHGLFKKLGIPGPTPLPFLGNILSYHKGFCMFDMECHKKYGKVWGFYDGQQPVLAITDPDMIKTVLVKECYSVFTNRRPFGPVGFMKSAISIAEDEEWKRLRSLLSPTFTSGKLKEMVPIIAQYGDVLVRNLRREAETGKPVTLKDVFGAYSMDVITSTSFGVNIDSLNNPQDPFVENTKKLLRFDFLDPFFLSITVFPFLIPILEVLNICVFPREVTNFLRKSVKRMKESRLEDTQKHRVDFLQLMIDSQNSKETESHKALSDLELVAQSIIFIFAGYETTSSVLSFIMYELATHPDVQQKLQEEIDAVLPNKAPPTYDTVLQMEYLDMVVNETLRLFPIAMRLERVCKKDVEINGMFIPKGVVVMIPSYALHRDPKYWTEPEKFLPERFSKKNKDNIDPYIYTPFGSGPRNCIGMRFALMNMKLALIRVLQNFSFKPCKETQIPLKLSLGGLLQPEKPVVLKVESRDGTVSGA
# Protocol: Inhibition of CYP3A4
# Assay type: ADME
Outcome Measure: INH (µM)

{"Compound": "CCCS(=O)(=O)c1ccc2[nH]c(C3CN(c4ccccc4)CCO3)nc2c1 (centres undefined)", "Outcome Measure": "INH", "Unit Annotation": "µM", "Result Operator": ">", "Readout Number": 20}
{"Compound": "CCCS(=O)(=O)c1ccc2nc(C3CCC(=O)N(c4ccccc4)C3)[nH]c2c1 (centres undefined)", "Outcome Measure": "INH", "Unit Annotation": "µM", "Result Operator": ">", "Readout Number": 20}
{"Compound": "CCS(=O)(=O)c1ccc2[nH]c(N3CCOC(c4ccc(F)cc4)C3)nc2c1 (centres undefined)", "Outcome Measure": "INH", "Unit Annotation": "µM", "Result Operator": ">", "Readout Number": 20}
{"Compound": "CCS(=O)(=O)c1ccc2[nH]c(N3CCOC(c4ccc(Cl)cc4)C3)nc2c1 (centres undefined)", "Outcome Measure": "INH", "Unit Annotation": "µM", "Result Operator": "=", "Readout Number": 13}
{"Compound": "CCS(=O)(=O)c1ccc2[nH]c(N3CCOC(c4ccc(OC)cc4)C3)nc2c1 (centres undefined)", "Outcome Measure": "INH", "Unit Annotation": "µM", "Result Operator": ">", "Readout Number": 20}
{"Compound": "CCCS(=O)(=O)c1ccc2nc(N3CCOC(c4ccccc4)C3)[nH]c2c1 (centres undefined)", "Outcome Measure": "INH", "Unit Annotation": "µM", "Result Operator": ">", "Readout Number": 20}
{"Compound": "CC(C)(C)S(=O)(=O)c1ccc2[nH]c(N3CCOC(c4ccccc4)C3)nc2c1 (centres undefined)", "Outcome Measure": "INH", "Unit Annotation": "µM", "Result Operator": "=", "Readout Number": 14}
{"Compound": "CCCS(=O)(=O)c1ccc2[nH]c(N3CCNC(c4ccccc4)C3)nc2c1 (centres undefined)", "Outcome Measure": "INH", "Unit Annotation": "µM", "Result Operator": ">", "Readout Number": 20}
{"Compound": "CCCS(=O)(=O)c1ccc2[nH]c(C3CCOC(c4ccccc4)C3)nc2c1 (mixture of isomers)", "Outcome Measure": "INH", "Unit Annotation": "µM", "Result Operator": ">", "Readout Number": 20}
{"Compound": "O=S(=O)(CC(F)(F)F)c1ccc2[nH]c(N3CCOC(c4ccccc4)C3)nc2c1 (centres undefined)", "Outcome Measure": "INH", "Unit Annotation": "µM", "Result Operator": "=", "Readout Number": 15}
{"Compound": "CC(C)S(=O)(=O)c1ccc2nc(N3CCOC(c4ccccc4)C3)[nH]c2c1 (centres undefined)", "Outcome Measure": "INH", "Unit Annotation": "µM", "Result Operator": "=", "Readout Number": 16}
{"Compound": "CCS(=O)(=O)c1ccc2[nH]c(N3CCOC(c4ccc(C)cc4)C3)nc2c1 (centres undefined)", "Outcome Measure": "INH", "Unit Annotation": "µM", "Result Operator": ">", "Readout Number": 20}
{"Compound": "CC(C)CS(=O)(=O)c1ccc2[nH]c(N3CCOC(c4ccccc4)C3)nc2c1 (centres undefined)", "Outcome Measure": "INH", "Unit Annotation": "µM", "Result Operator": "=", "Readout Number": 9.3}
{"Compound": "CCCS(=O)(=O)c1ccc2[nH]c(N3CCC(c4ccccc4)C3)nc2c1 (centres undefined)", "Outcome Measure": "INH", "Unit Annotation": "µM", "Result Operator": "=", "Readout Number": 14}
{"Compound": "CCCS(=O)(=O)c1ccc2nc(N3CCCC(c4ccccc4)C3)[nH]c2c1 (centres undefined)", "Outcome Measure": "INH", "Unit Annotation": "µM", "Result Operator": "=", "Readout Number": 6.9}
{"Compound": "CCCS(=O)(=O)c1ccc2nc(N3CCN(C)C(c4ccccc4)C3)[nH]c2c1 (centres undefined)", "Outcome Measure": "INH", "Unit Annotation": "µM", "Result Operator": ">", "Readout Number": 20}
{"Compound": "O=S(=O)(c1ccc2nc(N3CCOC(c4ccccc4)C3)[nH]c2c1)C(F)(F)F (centres undefined)", "Outcome Measure": "INH", "Unit Annotation": "µM", "Result Operator": "=", "Readout Number": 2.3}
{"Compound": "CC(C)(C(F)(F)F)S(=O)(=O)c1ccc2nc(N3CCOC(c4ccccc4)C3)[nH]c2c1 (centres undefined)", "Outcome Measure": "INH", "Unit Annotation": "µM", "Result Operator": "=", "Readout Number": 8.2}
{"Compound": "CCS(=O)(=O)c1ccc2nc(N3CCOC(c4ccccc4)C3)[nH]c2c1 (centres undefined)", "Outcome Measure": "INH", "Unit Annotation": "µM", "Result Operator": ">", "Readout Number": 20}
